Recorded values, source patent US20230117034A1.

Would you kindly list IC50 for each of these compounds?
target: CDK9/CycT1 (Homo sapiens, UniProt P50750); construct: Recombinant full-length His-tagged human CDK9 and CycT1; purchased Life Technologies PV4131; host or cells: insect cells; test: CDK9/CycT1 high ATP kinase assay (TR-FRET, 2 mM ATP); format: biochemical; details: 2 mM ATP (high ATP); median; read-out: CDK9/CyclinT1, 2 mM ATP (high ATP), IC50 (median)
Sequence (P50750 whole entry): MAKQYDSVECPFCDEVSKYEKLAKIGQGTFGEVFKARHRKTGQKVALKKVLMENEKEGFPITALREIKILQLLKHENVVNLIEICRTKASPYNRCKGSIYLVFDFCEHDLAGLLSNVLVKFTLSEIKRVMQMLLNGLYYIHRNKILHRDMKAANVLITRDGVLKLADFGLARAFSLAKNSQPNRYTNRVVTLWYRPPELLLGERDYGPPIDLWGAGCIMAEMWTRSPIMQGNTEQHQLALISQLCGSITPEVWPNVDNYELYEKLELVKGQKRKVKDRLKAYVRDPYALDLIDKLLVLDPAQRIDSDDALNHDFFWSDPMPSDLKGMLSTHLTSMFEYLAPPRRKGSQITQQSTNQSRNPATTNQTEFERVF
Sequence (O60563 whole entry partner): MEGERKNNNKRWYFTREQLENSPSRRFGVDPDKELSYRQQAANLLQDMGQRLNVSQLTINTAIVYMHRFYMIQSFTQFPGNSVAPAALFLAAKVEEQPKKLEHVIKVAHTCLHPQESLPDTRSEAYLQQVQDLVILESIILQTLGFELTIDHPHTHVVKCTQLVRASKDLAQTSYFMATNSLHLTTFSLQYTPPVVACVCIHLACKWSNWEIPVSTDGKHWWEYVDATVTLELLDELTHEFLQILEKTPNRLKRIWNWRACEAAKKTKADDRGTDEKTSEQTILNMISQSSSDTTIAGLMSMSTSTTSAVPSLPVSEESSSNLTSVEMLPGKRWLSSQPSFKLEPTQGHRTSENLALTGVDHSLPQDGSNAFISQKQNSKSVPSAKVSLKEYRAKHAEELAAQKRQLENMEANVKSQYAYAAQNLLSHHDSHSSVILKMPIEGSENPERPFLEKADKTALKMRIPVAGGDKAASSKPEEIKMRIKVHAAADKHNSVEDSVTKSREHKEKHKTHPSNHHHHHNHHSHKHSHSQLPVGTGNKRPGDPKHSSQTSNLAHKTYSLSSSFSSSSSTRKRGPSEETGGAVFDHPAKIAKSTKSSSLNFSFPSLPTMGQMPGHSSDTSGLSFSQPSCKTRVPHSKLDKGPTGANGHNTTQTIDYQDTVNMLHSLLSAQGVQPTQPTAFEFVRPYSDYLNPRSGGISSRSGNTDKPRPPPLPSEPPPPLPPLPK

// returns reported IC50 for input CN1CCCC2CN(c3nc(NCc4nc5ccccc5[nH]4)n4ncc(Br)c4n3)CC21 (stereo not shown) > 20 µM

And the next one, CN1CCN(c2nc(NCc3nc4ccccc4[nH]3)n3ncc(Br)c3n2)CC1 ? > 20 µM

And the next one, NC1(C(F)(F)F)CCN(c2nc(NCc3nc4ccccc4[nH]3)n3ncc(Br)c3n2)C1 (stereo not shown) ? > 20 µM

And the next one, Cc1ccc2[nH]c(CNc3nc(N4CCOCC4)nc4c(C5CC5)cnn34)nc2c1 ? > 20 µM

And the next one, CC(C)c1cnn2c(NCc3nc4ccccc4[nH]3)nc(N3CC4(COC4)C3)nc12 ? > 20 µM

And the next one, CN(CC(C)(C)O)c1nc(NCc2nc3c(F)c(F)ccc3[nH]2)n2ncc(C(F)(F)F)c2n1 ? 5.4 µM

And the next one, O=C1CN(c2nc(NCc3nc4ccccc4[nH]3)n3ncc(Br)c3n2)CCN1 ? > 20 µM

And the next one, Fc1cc2nc(CNc3nc(N4CCOCC4)nc4c(C(F)(F)F)cnn34)[nH]c2cc1F ? > 20 µM

And the next one, C[C@@H]1CN(c2nc(NCc3nnc(-c4ccccc4)[nH]3)n3ncc(Br)c3n2)CCN1C.O=CO [Example 130, formate] ? 4.86 µM

And the next one, N[C@H]1CCN(c2nc(NCc3nc4ccccc4[nH]3)n3ncc(Br)c3n2)C1 ? > 20 µM

And the next one, CC1(C)CN(c2nc(NCc3nnc(-c4ccccc4)[nH]3)n3ncc(C4CC4)c3n2)CCO1 ? 12.8 µM

And the next one, CC(C)c1cnn2c(NCc3nc4ccccc4[nH]3)nc(NCC(C)(C)O)nc12 ? > 20 µM

And the next one, COc1cccc2[nH]c(CNc3nc(N4CCOCC4)nc4c(CC(F)(F)F)cnn34)nc12 ? > 20 µM

And the next one, CN(CC(C)(C)O)c1nc(NCc2nc3cc(F)c(F)cc3[nH]2)n2ncc(Br)c2n1 ? 10.4 µM

And the next one, CC(C)c1cnn2c(NCc3ncc(-c4ccccc4)[nH]3)nc(N3CCOCC3)nc12 ? > 20 µM

And the next one, FC(F)(F)c1cnn2c(NCc3nc4cc(Cl)c(Cl)cc4[nH]3)nc(N3CCOCC3)nc12 ? > 20 µM

====

molecular target: CYCLIN K (nuclear staining in CAL-120 cells) (Homo sapiens, UniProt O75909); construct: endogenous in cells; host or cells: CAL-120 human breast cancer cells (DSMZ ACC 459); assay: CYCLIN K nuclear protein level: immunofluorescence high content analysis (CAL-120); format: cell-based; settings: 24 h, 50% reduction of nuclear CCNK staining intensity, median, read-out: CYCLIN K degradation IF, DC50-[mol/l] (median)
Sequence (O75909 whole entry): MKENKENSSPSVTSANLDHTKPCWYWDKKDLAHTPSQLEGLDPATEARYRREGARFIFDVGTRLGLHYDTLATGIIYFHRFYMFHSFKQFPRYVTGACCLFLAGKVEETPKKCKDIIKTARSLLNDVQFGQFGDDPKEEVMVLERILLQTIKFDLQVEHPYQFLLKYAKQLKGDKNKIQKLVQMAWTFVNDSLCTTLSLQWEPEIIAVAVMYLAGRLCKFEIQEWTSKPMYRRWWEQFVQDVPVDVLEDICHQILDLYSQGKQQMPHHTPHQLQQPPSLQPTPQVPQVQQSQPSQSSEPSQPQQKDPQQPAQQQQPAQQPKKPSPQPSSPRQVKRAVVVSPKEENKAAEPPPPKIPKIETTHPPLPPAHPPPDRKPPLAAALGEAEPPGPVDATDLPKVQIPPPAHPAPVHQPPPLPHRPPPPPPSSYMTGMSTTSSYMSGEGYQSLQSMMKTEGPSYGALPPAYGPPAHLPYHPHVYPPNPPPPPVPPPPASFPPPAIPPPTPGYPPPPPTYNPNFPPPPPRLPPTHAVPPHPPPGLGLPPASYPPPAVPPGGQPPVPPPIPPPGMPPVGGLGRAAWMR
Sequence (Q9NYV4 whole entry partner): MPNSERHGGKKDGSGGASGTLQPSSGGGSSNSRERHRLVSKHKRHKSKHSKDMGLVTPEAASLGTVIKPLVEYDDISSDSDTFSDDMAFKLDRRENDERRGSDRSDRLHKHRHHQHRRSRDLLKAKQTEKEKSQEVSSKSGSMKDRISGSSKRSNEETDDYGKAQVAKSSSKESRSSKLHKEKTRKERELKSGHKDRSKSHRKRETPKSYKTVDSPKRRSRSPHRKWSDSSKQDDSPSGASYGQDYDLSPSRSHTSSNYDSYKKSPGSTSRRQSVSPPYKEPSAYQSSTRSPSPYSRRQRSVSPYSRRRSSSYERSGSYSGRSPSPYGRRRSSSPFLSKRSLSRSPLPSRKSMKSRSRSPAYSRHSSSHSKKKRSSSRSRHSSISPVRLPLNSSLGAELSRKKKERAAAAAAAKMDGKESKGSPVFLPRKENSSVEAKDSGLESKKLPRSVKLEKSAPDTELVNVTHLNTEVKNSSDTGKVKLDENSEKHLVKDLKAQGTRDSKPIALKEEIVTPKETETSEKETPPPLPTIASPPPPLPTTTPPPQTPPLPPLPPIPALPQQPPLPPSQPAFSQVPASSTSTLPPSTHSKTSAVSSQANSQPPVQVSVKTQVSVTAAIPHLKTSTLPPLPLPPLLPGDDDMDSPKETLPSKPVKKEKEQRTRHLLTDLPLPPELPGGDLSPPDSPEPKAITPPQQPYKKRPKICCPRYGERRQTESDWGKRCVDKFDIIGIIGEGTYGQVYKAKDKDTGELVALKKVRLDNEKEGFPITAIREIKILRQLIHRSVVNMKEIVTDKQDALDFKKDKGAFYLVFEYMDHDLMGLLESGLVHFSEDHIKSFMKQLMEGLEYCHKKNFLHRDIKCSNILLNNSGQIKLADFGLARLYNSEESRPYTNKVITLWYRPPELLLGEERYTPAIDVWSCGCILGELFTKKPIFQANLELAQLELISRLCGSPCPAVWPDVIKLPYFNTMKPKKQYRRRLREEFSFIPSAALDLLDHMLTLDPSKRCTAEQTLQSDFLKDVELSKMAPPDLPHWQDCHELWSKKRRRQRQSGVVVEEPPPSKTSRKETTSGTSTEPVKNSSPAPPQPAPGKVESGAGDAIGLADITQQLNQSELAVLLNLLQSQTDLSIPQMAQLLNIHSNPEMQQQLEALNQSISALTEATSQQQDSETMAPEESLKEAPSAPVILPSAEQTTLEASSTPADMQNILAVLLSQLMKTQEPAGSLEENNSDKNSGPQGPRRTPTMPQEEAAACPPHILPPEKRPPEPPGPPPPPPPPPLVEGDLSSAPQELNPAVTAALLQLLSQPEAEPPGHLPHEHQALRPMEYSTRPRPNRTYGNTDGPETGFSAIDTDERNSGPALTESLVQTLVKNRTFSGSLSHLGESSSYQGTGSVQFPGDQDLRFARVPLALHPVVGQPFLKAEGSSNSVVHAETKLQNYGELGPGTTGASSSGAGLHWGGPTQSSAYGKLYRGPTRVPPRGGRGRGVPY
Would you kindly list DC50 for each of these compounds?
Provide only the numeric value, understood in nM.

// returns reported DC50 for input CN1CCCC2CN(c3nc(NCc4nc5ccccc5[nH]4)n4ncc(Br)c4n3)CC21 (stereo not shown) 34.1

And the next one, CN[C@H]1CCN(c2nc(NCc3nc4ccccc4[nH]3)n3ncc(Br)c3n2)C1 ? 2.42

And the next one, Fc1ccc2[nH]c(CNc3nc(N4CC5CCC(C4)N5)nc4c(C(F)(F)F)cnn34)nc2c1F ? 0.29

And the next one, Fc1cc2nc(CNc3nc(N4CCOCC4)nc4c(C5CC5)cnn34)[nH]c2cc1Cl ? 0.863

====

System: CAL-120, human breast adenocarcinoma cells
Experiment: Proliferation assay CAL-120 (crystal violet, 4 days)
Type: cell-based
Details: Homo sapiens, CAL-120, 96 h, CAL-120 cells, median, read-out: Prolif-CAL-120, IC50-[mol/l] (median)
Description: Human tumour cells were originally obtained from the American Type Culture Collection (ATCC), or from the Deutsche Sammlung von Mikroorganismen und Zellkulturen (DSMZ, German Collection of Microorganisms and Cell Cultures). […] Cell proliferation was determined by staining the cells with crystal violet: the cells were fixed by adding 20 microL/measuring point of an 11% glutaric aldehyde solution for 15 minutes at room temperature. […] The extinction was determined by photometry at a wavelength of 595 nm. […]
reportedProperty: log10 of IC50 (log10 of the value in µM)
// stored as log10 of IC50 expressed in µM

// returns reported log10 of IC50 for input O=C(O)C(F)(F)F.c1ccc2[nH]c(CNc3nc(N4CCOCC4)nc4c(-c5cncs5)cnn34)nc2c1 -2.11

And the next one, O=S1(=O)CCN(c2nc(NCc3nc4ccccc4[nH]3)n3ncc(Br)c3n2)CC1 ? -1.70

And the next one, C[C@@H]1CN(c2nc(NCc3nc4ccccc4[nH]3)n3ncc(Br)c3n2)C[C@H](C)N1C ? -0.90

And the next one, CC[C@H](COC)Nc1nc(NCc2nc3ccccc3[nH]2)n2ncc(Br)c2n1 ? -0.85

And the next one, Fc1ccc2[nH]c(CNc3nc(N4CC5CCC(C4)N5)nc4c(C(F)(F)F)cnn34)nc2c1F ? -2.76

And the next one, C[C@@H]1COCCN1c1nc(NCc2nc3ccccc3[nH]2)n2ncc(Br)c2n1 ? -1.76

And the next one, CN1CCCN(c2nc(NCc3nc4ccccc4[nH]3)n3ncc(Br)c3n2)CC1 ? -1.53

And the next one, CN1CCN(c2nc(NCc3nc4ccccc4[nH]3)n3ncc(Br)c3n2)CC1 ? -1.49

And the next one, CN1CCN(c2nc(NCc3nc4ccccc4[nH]3)n3ncc(C4CC4(F)F)c3n2)CC1 (stereo not shown) ? -1.32

And the next one, C[C@@H]1CN(c2nc(NCc3nc4c(F)c(F)ccc4[nH]3)n3ncc(C4CC4)c3n2)C[C@H](C)N1 ? -3.00

And the next one, Cc1ccc2[nH]c(CNc3nc(N4C[C@@H]5CCCN[C@@H]5C4)nc4c(C5CC5)cnn34)nc2c1 ? -2.35

And the next one, Fc1cccc(-c2nnc(CNc3nc(N4CCNCC4)nc4c(Br)cnn34)[nH]2)c1 ? -2.41

And the next one, CCN(C)c1nc(NCc2nc3ccccc3[nH]2)n2ncc(Br)c2n1 ? -0.80

And the next one, Clc1cc2nc(CNc3nc(N4CCOCC4)nc4c(-c5ccnnc5)cnn34)[nH]c2cc1Cl.O=C(O)C(F)(F)F ? -2.13

And the next one, Cc1ccc2[nH]c(CNc3nc(N4CCNCC4)nc4c(Br)cnn34)nc2c1 ? -3.06

And the next one, Fc1cc2nc(CNc3nc(N4CCOCC4)nc4c(C5CC5)cnn34)[nH]c2cc1Cl ? -2.34

====

Target: CDK12 (nuclear staining in CAL-120 cells) (Homo sapiens, UniProt Q9NYV4)
Construct: endogenous in cells; host or cells: CAL-120 human breast cancer cells (DSMZ ACC 459)
Sequence (Q9NYV4 whole entry): as the sequence (Q9NYV4 whole entry partner) above
Sequence (O75909 whole entry partner): as the sequence (O75909 whole entry) above
Assay: CDK12 nuclear protein level: immunofluorescence/high content analysis (CAL-120)
Assay type: cell-based
Settings: CAL-120 cells, 24 h, immunofluorescence; 50% reduction of nuclear CDK12 staining intensity; median; read-out: CDK12 degradation IF, DC50- [mol/l] (median)
Description: In the context of the present invention, the term “DC50 CDK12” refers to the DC50 values obtained according to the assay described in this section (7) herein below, i.e. the DC50 values for the degradation of CDK12. Plates are then incubated for 24 h at 37° C. in an humidified incubator and fixed with 4% PFA for 10 min. […] Nuclear and cytoplasmic intensity as well as the nuclear/cytoplasmic intensity ratio is determined by automated image analysis using custom generated scripts (MetaXpress). […]
reportedProperty: log10 of DC50 (log10 of the value in nM)
// stored as log10 of DC50 expressed in nM

// returns reported log10 of DC50 for input O[C@H]1CCN(c2nc(NCc3nc4ccccc4[nH]3)n3ncc(Br)c3n2)C1 1.58

And the next one, CN1CCN(c2nc(NCc3nc4cc(F)ccc4[nH]3)n3ncc(C4CC4)c3n2)CC1 ? 0.00

And the next one, CN1CCN(c2nc(NCc3nnc(-c4ccccc4)[nH]3)n3ncc(Br)c3n2)CC1=O ? 1.64

And the next one, C[C@H]1CN(c2nc(NCc3nc4ccccc4[nH]3)n3ncc(Br)c3n2)CCN1C ? -0.04

And the next one, C[C@@H]1COCCN1c1nc(NCc2nc3ccccc3[nH]2)n2ncc(Br)c2n1 ? 1.18

And the next one, Brc1cnn2c(NCc3nnc(-c4ccccc4)[nH]3)nc(N3CC4(COC4)C3)nc12 ? 0.62

And the next one, FC(F)(F)c1ccc2[nH]c(CNc3nc(N4CC5CCC(C4)N5)nc4c(C5CC5)cnn34)nc2c1 ? 1.00

And the next one, C[C@H]1COCCN1c1nc(NCc2nc3ccccc3[nH]2)n2ncc(Br)c2n1 ? 0.19
